This collection of values is drawn from patent US11026943B2.

Tested on: HepG2 cells
Assay: In vitro cytotoxicity to mammalian cells, HepG2
Format: cell-based
Settings: Homo sapiens
Text: Med. Chem. 2005, 13, 4458; Khan, I. A. Lipids 2004, 37, 169].
Known IC50 of a selection of compounds
Provide only the numeric value, understood in µM.

| compound | unit.label | IC50 |
| --- | --- | --- |
| Cc1cc(Cl)nc(NCCCCCCNc2ccnc3cc(Cl)ccc23)n1 [11d] | µM | 8.1 |
| Cc1cc(Cl)nc(NCCNc2ccnc3cc(Cl)ccc23)n1 [11a] | µM | 43 |

Form field IC50, entry Cc1cc(NCCCNc2ccnc3cc(Cl)ccc23)nc(N2CCN(C)CC2)n1 [12j] : 25.8

Form field IC50, entry Cc1cc(NCCCNc2ccnc3cc(Cl)ccc23)nc(N2CCOCC2)n1 [12f] : 26.1

Form field IC50, entry Cc1cc(NCCCCCCNc2ccnc3cc(Cl)ccc23)nc(Cl)n1 [10d] : 9.3
